test system: SW684; assay: relative viability vs DMSO control (72 h) (fraction); higher = more viable cells; details: 0.04115 µM
Counter-ions that a name gives are not always drawn.
OBSERVATION TYPE: relative viability
# output: bare number, no unit

MOLECULE | relative viability
COc1cccc2c1C(=O)c1c(O)c3c(c(O)c1C2=O)C[C@@](O)(C(=O)CO)C[C@@H]3O[C@H]1C[C@H](N)[C@H](O)[C@H](C)O1 [Doxorubicin Hydrochloride] | 0.96
Cc1cnc(Nc2ccc(OCCN3CCCC3)cc2)nc1Nc1cccc(S(=O)(=O)NC(C)(C)C)c1 [Fedratinib] | 1.13
O=C(Cc1ccc(-c2ccc(OCCN3CCOCC3)cc2)cn1)NCc1ccccc1 [KX2-391] | 1.04
COCc1c(-c2cc3cc(C)cc(OC)c3s2)c2c(N)ncnn2c1CN1CCNC(=O)C1 [Rogaratinib] | 1.15
Cc1nc(NC(=O)N2CCC[C@H]2C(N)=O)sc1-c1ccnc(C(C)(C)C(F)(F)F)c1 [Alpelisib] | 1.05
CCCS(=O)(=O)Nc1ccc(F)c(C(=O)c2c[nH]c3ncc(-c4ccc(Cl)cc4)cc23)c1F [Vemurafenib] | 1.18

Look at this molecule and give its reported relative viability. CCc1cc2c(cc1N1CCC(N3CCOCC3)CC1)C(C)(C)c1[nH]c3cc(C#N)ccc3c1C2=O [Alectinib]
1.2

Look at this molecule and give its reported relative viability. CC(C)(C)c1cc(NC(=O)Nc2ccc(-c3cn4c(n3)sc3cc(OCCN5CCOCC5)ccc34)cc2)no1 [Quizartinib]
1.14

###

test system: G401; assay: relative viability vs DMSO control (72 h) (fraction); higher = more viable cells; details: 0.00051 µM
Where a name gives a salt, the structure may show the parent alone.
OBSERVATION TYPE: relative viability
# output: bare number, no unit

Below, 3 molecules whose answers are already recorded.
MOLECULE | OBSERVATION TYPE | REPORTED MEASUREMENT
CC(C)(C)c1cc(NC(=O)Nc2ccc(-c3cn4c(n3)sc3cc(OCCN5CCOCC5)ccc34)cc2)no1 | relative viability | 1.01
Cc1cc(C)c(/C=C2\C(=O)Nc3ccccc32)[nH]1 | relative viability | 0.981
CC1(C)CNc2cc(NC(=O)c3cccnc3NCc3ccncc3)ccc21 | relative viability | 0.982

Look at this molecule and give its reported relative viability. Nc1cc(C(F)(F)F)c(-c2cc(N3CCOCC3)nc(N3CCOCC3)n2)cn1
0.983

Look at this molecule and give its reported relative viability. COc1cccc2c1C(=O)c1c(O)c3c(c(O)c1C2=O)C[C@@](O)(C(=O)CO)C[C@@H]3O[C@H]1C[C@H](N)[C@H](O)[C@H](C)O1 [Doxorubicin Hydrochloride]
1.02

###

test system: HS729; test: relative viability vs DMSO control (72 h) (fraction); higher = more viable cells; conditions: 3.333 µM
OBSERVATION TYPE: relative viability

Below, 2 compounds whose answers are already recorded.
SMILES | relative viability
C=CC(=O)Nc1cccc(Oc2nc(Nc3ccc(N4CCN(C)CC4)cc3)nc3ccsc23)c1 | 0.887
O=C(Cc1ccc(-c2ccc(OCCN3CCOCC3)cc2)cn1)NCc1ccccc1 | 0.501

Next, consider the following compound.
Query relative viability on HS729 for CCN1CCN(Cc2ccc(Nc3ncc(F)c(-c4cc(F)c5nc(C)n(C(C)C)c5c4)n3)nc2)CC1
0.886
